src = ChEMBL document CHEMBL4373746

Entries annotated with measured fraction unbound at 6 h, 2 µM
Test: Fraction unbound in Wistar Han rat skeletal muscle at 2 uM incubated for 6 hrs by equilibrium dialysis method
Lab note: jot the number down without any unit.

Sample records with fraction unbound at 6 h, 2 µM:
COc1ccc2ncc(F)c([C@@H](O)CC[C@@H]3CCN(CCSc4cccs4)C[C@@H]3C(=O)O)c2c1 = 0.132
CC(C)(O)CS(=O)(=O)c1ccc2c(c1)nc(C(C)(C)C)n2CC1CCOCC1 = 0.203

Lookup: Quote fraction unbound at 6 h, 2 µM reported for Cn1cnc(-c2ccc(O[C@H]3CCN(C(=O)Cc4ccc(OC(F)(F)F)cc4)C[C@@H]3F)c(C(N)=O)c2)c1 please.
Found: 0.0611

Lookup: Quote fraction unbound at 6 h, 2 µM reported for Cc1ccc(CC(C)(C)NC[C@@H](O)CO[C@H](C)c2ccccc2-c2ccc(C(=O)O)c(C)c2)cc1F please.
Found: 0.021

###

Assay: Drug concentration in total skeletal muscle in Wistar Han rat at 1 to 2 mg/kg, iv infused for 10 to 20 hrs by LC-MS/MS analysis
Conditions: in vivo
measure: Ct (ng/mL)
Enter your answer as a number in ng/mL; do not include the unit.

Sample records with Ct:
CC(C)(O)CS(=O)(=O)c1ccc2c(c1)nc(C(C)(C)C)n2CC1CCOCC1 = 60
O=c1[nH]c(=S)n(CCO)c2cc[nH]c12 = 38
CN(C)C[C@@H](OC(=O)N1Cc2c(NC(=O)C3(C(F)(F)F)CC3)n[nH]c2C1(C)C)c1ccccc1 = 97
O=C(NC1CCCC1)C1CCN(c2nc3cc(Cl)ccc3o2)CC1 = 59

Alright, here's another molecule for you.
Lookup: Quote Ct reported for CCC[C@H](Oc1cc(C)c(-n2cc(C(F)(F)F)cn2)c(C)c1)c1ccc(C(=O)NCCC(=O)O)cc1 please.
Found: 58

###

Test: Fraction unbound in Wistar Han rat liver at 2 uM incubated for 6 hrs by equilibrium dialysis method
Entries annotated with measured fraction unbound at 6 h, 2 µM
Lab note: jot the number down without any unit.

Sample records with fraction unbound at 6 h, 2 µM:
O=C(O)c1nc2cc(Cl)c(Cl)cc2nc1O = 0.24
COc1ccc(Cc2cc([C@@H]3OC4(COC4)[C@@H](O)[C@H](O)[C@H]3O)ccc2C)cc1 = 0.125
Cc1ccc(NC(=O)N2CCN(Cc3sc4ccccc4c3C)CC2)nc1 = 0.0191
C[C@H](CN1CCOCC1)n1/c(=N\C(N)=O)[nH]c2cc(/C=C3\c4ccccc4COc4cc(F)ccc43)ccc21 = 0.000706

Lookup: Quote fraction unbound at 6 h, 2 µM reported for O=C(NC1CC1)c1nc2cccnn2c1-c1ccc2ncnn2c1 please.
Found: 0.439

Lookup: Quote fraction unbound at 6 h, 2 µM reported for C[C@H]1c2cccc(CCC(C)(C)O)c2C[C@H](CO)N1C(=O)Cc1c(Cl)cccc1Cl please.
Found: 0.0158

Lookup: Quote fraction unbound at 6 h, 2 µM reported for O=c1[nH]c(=S)n(CCO)c2cc[nH]c12 please.
Found: 0.696

Lookup: Quote fraction unbound at 6 h, 2 µM reported for O=C(O)[C@@H]1CCCN(C(=O)n2cnc(-c3ccc(-c4cnc(N5CCOCC5)nc4)cc3)n2)[C@H]1c1ccccc1 please.
Found: 0.00643

Lookup: Quote fraction unbound at 6 h, 2 µM reported for Cc1ccc(NC(=O)c2cc(Oc3ccc(S(C)(=O)=O)cc3)c3c(c2)OC(C)(C)C3)nc1 please.
Found: 0.00864

Lookup: Quote fraction unbound at 6 h, 2 µM reported for O=C(c1cccc(N2CCNCC2)n1)N1CCC(c2ccccc2F)CC1 please.
Found: 0.0394

Lookup: Quote fraction unbound at 6 h, 2 µM reported for O=C(O)c1c[nH]c2cc(Cl)c(-c3ccc(CC(=O)N4CCOCC4)cc3)cc12 please.
Found: 0.0789

Lookup: Quote fraction unbound at 6 h, 2 µM reported for CC(=O)NS(=O)(=O)c1ccc(Oc2ccc(F)c(Cl)c2)c(C(F)(F)F)c1 please.
Found: 0.0598

Lookup: Quote fraction unbound at 6 h, 2 µM reported for CN(C)C(=O)c1cc(CC(=O)O)ccc1NC(=O)c1ccccc1-c1ccc(C(F)(F)F)cc1 please.
Found: 0.205

Lookup: Quote fraction unbound at 6 h, 2 µM reported for Cc1nc([C@@H]2CCOC2)c2c(N3CCc4c(c(C5CC5)nn4C)C3)ncnn12 please.
Found: 0.195

Lookup: Quote fraction unbound at 6 h, 2 µM reported for Cn1nc(C(=O)NCCN2CCOCC2)cc1-c1cc2ccccc2[nH]1 please.
Found: 0.0714

Lookup: Quote fraction unbound at 6 h, 2 µM reported for COc1cc2c(cc1Cc1ccccc1)C[C@H](N)C(=O)N2OC(=O)N(C)C please.
Found: 0.147

Lookup: Quote fraction unbound at 6 h, 2 µM reported for CS(=O)(=O)c1cccc(C(=O)O)c1 please.
Found: 0.628

Lookup: Quote fraction unbound at 6 h, 2 µM reported for COc1ccc2ncc(F)c([C@@H](O)CC[C@@H]3CCN(CCSc4cccs4)C[C@@H]3C(=O)O)c2c1 please.
Found: 0.191

Lookup: Quote fraction unbound at 6 h, 2 µM reported for Cc1c(C(=O)O)cnn1-c1nc(-c2cccc(C(F)(F)F)c2)cs1 please.
Found: 0.00676

Lookup: Quote fraction unbound at 6 h, 2 µM reported for Nc1noc2ccc(-c3cc(Cl)ccc3Oc3cc(F)c(S(=O)(=O)Nc4cscn4)cc3F)cc12 please.
Found: 0.00176

###

Entries annotated with measured Kp uu
Experiment: Unbound tissue partition coefficient, ratio of drug level in adipose to plasma in Wistar Han rat at 1 to 2 mg/kg, iv infused for 10 to 20 hrs by LC-MS/MS analysis
Settings: other tissue
Lab note: jot the number down without any unit.

CC(C)c1nc(CN(C)C(=O)N[C@H](C(=O)N[C@@H](Cc2ccccc2)C[C@H](O)[C@H](Cc2ccccc2)NC(=O)OCc2cncs2)C(C)C)cs1 = 9.6

Alright, here's another compound for you.
Lookup: Quote Kp uu reported for COc1cc2nc(N3CCN(C(=O)c4ccco4)CC3)nc(N)c2cc1OC please.
Found: 1.2

###

Entries annotated with measured Cp
Experiment: Total plasma concentration in Wistar Han rat at 1 to 2 mg/kg, iv infused for 10 to 20 hrs by LC-MS/MS analysis
Settings: in vivo
Enter your answer as a number in ng/mL; do not include the unit.

Sample records with Cp:
Cc1nc([C@@H]2CCOC2)c2c(N3CCc4c(c(C5CC5)nn4C)C3)ncnn12 = 66
Cn1cnc(-c2ccc(O[C@H]3CCN(C(=O)Cc4ccc(OC(F)(F)F)cc4)C[C@@H]3F)c(C(N)=O)c2)c1 = 76

Lookup: Quote Cp reported for C[C@H]1c2cccc(CCC(C)(C)O)c2C[C@H](CO)N1C(=O)Cc1c(Cl)cccc1Cl please.
Found: 150

Lookup: Quote Cp reported for CC(=O)NS(=O)(=O)c1ccc(Oc2ccc(F)c(Cl)c2)c(C(F)(F)F)c1 please.
Found: 450

Lookup: Quote Cp reported for CCC[C@H](Oc1cc(C)c(-n2cc(C(F)(F)F)cn2)c(C)c1)c1ccc(C(=O)NCCC(=O)O)cc1 [PF-06291874] please.
Found: 410

Lookup: Quote Cp reported for CC1(C)CN(CCC#N)C(=O)[C@@H]1Oc1ccc(C#N)c(C(F)(F)F)c1 please.
Found: 160

Lookup: Quote Cp reported for C[C@H]1C[C@H]2CSC(N)=N[C@@]2(c2cc(C#N)ccc2F)CO1 please.
Found: 84

Lookup: Quote Cp reported for CN(C)C(=O)c1cc(CC(=O)O)ccc1NC(=O)c1ccccc1-c1ccc(C(F)(F)F)cc1 please.
Found: 83

Lookup: Quote Cp reported for NC(=O)c1c(-c2ccc(Oc3ccc(Cl)cc3)cc2)nn([C@@H]2CCCN(C(=O)/C=C/CO)C2)c1N please.
Found: 55

Lookup: Quote Cp reported for CC1(OC(=O)N2CCC(n3ncc(COc4ccc(C(N)=O)cc4F)c3C#N)CC2)CC1 please.
Found: 150

Lookup: Quote Cp reported for O=C(NC1CC1)c1nc2cccnn2c1-c1ccc2ncnn2c1 please.
Found: 50

###

Entries annotated with measured Ct
Assay: Drug concentration in total brain in Wistar Han rat at 1 to 2 mg/kg, iv infused for 10 to 20 hrs by LC-MS/MS analysis
Details: in vivo
Enter your answer as a number in ng/mL; do not include the unit.

Sample records with Ct:
CS(=O)(=O)c1cccc(C(=O)O)c1 = 1
COc1cc(/C=C2\CCCN([C@@H](C)c3ccc(F)cc3)C2=O)ccc1-n1cnc(C)c1 = 150
CC(=O)NS(=O)(=O)c1ccc(Oc2ccc(F)c(Cl)c2)c(C(F)(F)F)c1 = 4.4
Cc1ccc(NC(=O)N2CCN(Cc3sc4ccccc4c3C)CC2)nc1 = 91
O=C(NC(c1ccccc1)c1ccccc1)C1CC1 = 200

Lookup: Quote Ct reported for Cc1c(C(=O)O)cnn1-c1nc(-c2cccc(C(F)(F)F)c2)cs1 please.
Found: 22

Lookup: Quote Ct reported for CN(C)C(=O)C(CCN1CCC(O)(c2ccc(Cl)cc2)CC1)(c1ccccc1)c1ccccc1 [LOPERAMIDE] please.
Found: 1.3

Lookup: Quote Ct reported for Cc1nc2cc(-c3cc(F)cc(C#N)c3)ccc2s1 please.
Found: 73

Lookup: Quote Ct reported for CO[C@@H]1C[C@H](C(=O)Nc2ccc(-n3cc(Cl)ccc3=O)cc2F)N(C(=O)Nc2ccc(Cl)cc2)C1 please.
Found: 10

Lookup: Quote Ct reported for NC(=O)c1c(-c2ccc(Oc3ccc(Cl)cc3)cc2)nn([C@@H]2CCCN(C(=O)/C=C/CO)C2)c1N please.
Found: 2.4
